- STUDY_SYSTEM: human somatostatin receptor subtype 2 (Homo sapiens, UniProt P30874)
- Construct: expressed in transfected cells
- Sequence (P30874 whole entry): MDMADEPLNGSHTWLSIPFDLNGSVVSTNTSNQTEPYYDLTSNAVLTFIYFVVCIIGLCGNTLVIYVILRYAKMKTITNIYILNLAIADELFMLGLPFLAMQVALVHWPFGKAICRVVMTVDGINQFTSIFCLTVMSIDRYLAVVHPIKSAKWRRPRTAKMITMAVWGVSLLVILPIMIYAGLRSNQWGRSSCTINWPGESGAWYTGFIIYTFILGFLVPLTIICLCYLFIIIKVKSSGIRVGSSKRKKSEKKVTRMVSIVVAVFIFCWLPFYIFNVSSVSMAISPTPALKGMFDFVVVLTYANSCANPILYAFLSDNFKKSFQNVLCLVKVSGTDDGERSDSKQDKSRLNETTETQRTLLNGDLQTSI
- MEASUREMENT_DESCRIPTION: Functional assay for SSTR2 agonists (HTRF cAMP)
- Type: cell-based
- STUDY_CONDITIONS: CHO-K1 cells stably expressing human SST2; NKH477-stimulated cAMP; 20 min at 37 C; read-out: hSST2 cAMP Avg EC50
ASSAY_ENDPOINT: EC50 (pM)
Numbers only; they are read as pM.

*Q* Output measured EC50 for this item: "CC[C@H](C)[C@@H]([C@@H](CC(=O)N1CCC[C@H]1[C@H](OC)[C@@H](C)C(=O)N[C@H](C)[C@@H](O)c1ccccc1)OC)N(C)C(=O)[C@@H](NC(=O)[C@H](C(C)C)N(C)C(=O)OCc1ccc(NC(=O)[C@H](CCCNC(N)=O)NC(=O)[C@@H](NC(=O)C[C@@H](N)C(=O)NCCOCCNC(=O)c2cc(NCCOCCC(=O)NCCNc3ncc(-c4cc(C)cc(F)c4)c(N4CCC(N)CC4)c3-c3nc4cc(F)cc(OC)c4[nH]3)cc(C(=O)NCC(=O)O)c2)C(C)C)cc1)C(C)C"
*A* 350

----------
pEC50 values by entry
- STUDY_SYSTEM: human somatostatin receptor subtype 2 (Homo sapiens)
- Construct: expressed in transfected cells
- MEASUREMENT_DESCRIPTION: Functional assay for SSTR2 agonists (HTRF cAMP)
- Assay type: cell-based
- STUDY_CONDITIONS: CHO-K1 cells stably expressing human SST2; NKH477-stimulated cAMP; 20 min at 37 C; read-out: hSST2 cAMP Avg EC50
Just so you know, pEC50 here is -log10 of the concentration in molar units; reply with that number alone.

These recorded examples may help you get a feel for the data.
CC[C@H](C)[C@@H]([C@@H](CC(=O)N1CCC[C@H]1[C@H](OC)[C@@H](C)C(=O)N[C@H](C)[C@@H](O)c1ccccc1)OC)N(C)C(=O)[C@@H](NC(=O)[C@H](C(C)C)N(C)C(=O)OCc1ccc(NC(=O)[C@H](CCCNC(N)=O)NC(=O)[C@@H](NC(=O)[C@H](CCc2nnn[nH]2)NC(=O)CCOCCC(=O)NCCNc2ncc(-c3cc(C)cc(F)c3)c(N3CCC(N)CC3)c2-c2nc3ccc(Cl)cc3[nH]2)C(C)C)cc1)C(C)C	9.55
CC[C@H](C)[C@@H]([C@@H](CC(=O)N1CCC[C@H]1[C@H](OC)[C@@H](C)C(=O)N[C@H](C)[C@@H](O)c1ccccc1)OC)N(C)C(=O)[C@@H](NC(=O)[C@H](C(C)C)N(C)C(=O)OCc1ccc(NC(=O)[C@H](CCCNC(N)=O)NC(=O)[C@@H](NC(=O)c2cc(NCCOCCC(=O)NCCNc3ncc(-c4cc(C)cc(F)c4)c(N4CCC(N)CC4)c3-c3nc4ccc(Cl)cc4[nH]3)cc(C(=O)NCC(N)=O)c2)C(C)C)cc1)C(C)C	9.59
CC[C@H](C)[C@@H]([C@@H](CC(=O)N1CCC[C@H]1[C@H](OC)[C@@H](C)C(=O)N[C@H](C)[C@@H](O)c1ccccc1)OC)N(C)C(=O)[C@@H](NC(=O)[C@H](C(C)C)N(C)C(=O)OCc1ccc(NC(=O)[C@H](CCCNC(N)=O)NC(=O)[C@@H](NC(=O)c2cc(NCCCC(=O)N(C)CC(=O)NCCNc3ncc(-c4cc(C)cc(F)c4)c(N4CCC(N)CC4)c3-c3nc4ccc(Cl)cc4[nH]3)cc(C(=O)NC[C@@H](N)C(=O)O)c2)C(C)C)cc1)C(C)C	9.48

*Q* Output measured pEC50 for this item: "CC[C@H](C)[C@@H]([C@@H](CC(=O)N1CCC[C@H]1[C@H](OC)[C@@H](C)C(=O)N[C@H](C)[C@@H](O)c1ccccc1)OC)N(C)C(=O)[C@@H](NC(=O)[C@H](C(C)C)N(C)C(=O)OCc1ccc(NC(=O)[C@H](CCCNC(N)=O)NC(=O)[C@@H](NC(=O)c2cc(NCCOCCC(=O)NCCNc3ncc(-c4cc(C)cc(F)c4)c(N4CCC(N)CC4)c3-c3nc4cc(F)cc(OC)c4[nH]3)cc(C(=O)NCC(=O)O)c2)C(C)C)cc1)C(C)C"
*A* 9.54

*Q* Output measured pEC50 for this item: CC[C@H](C)[C@@H]([C@@H](CC(=O)N1CCC[C@H]1[C@H](OC)[C@@H](C)C(=O)N[C@H](C)[C@@H](O)c1ccccc1)OC)N(C)C(=O)[C@@H](NC(=O)C(C(C)C)N(C)C(=O)OCc1ccc(NC(=O)[C@H](CCCNC(N)=O)NC(=O)[C@@H](NC(=O)CCOCCC(=O)NCCNc2ncc(-c3cc(C)cc(F)c3)c(N3CCC(N)CC3)c2-c2nc3ccc(Cl)cc3[nH]2)C(C)C)c(O[C@@H]2O[C@H](C(=O)N3CCCCC3)[C@@H](O)[C@H](O)[C@H]2O)c1)C(C)C (some centres unmarked)
*A* 9.59

----------
- STUDY_SYSTEM: SST2 (Homo sapiens)
- Construct: host or cells: PathHunter CHO-K1 SST2 cells
- MEASUREMENT_DESCRIPTION: PathHunter CHO-K1 SST2 Internalization Assay
- Type: cell-based
- STUDY_CONDITIONS: PathHunter CHO-K1 SST2 cells; 90 min at 37 C; luminescence; read-out: Internalization EC50
EC50 values by entry
Quick note: number first, unit second.

CC[C@H](C)[C@@H]([C@@H](CC(=O)N1CCC[C@H]1[C@H](OC)[C@@H](C)C(=O)N[C@H](C)[C@@H](O)c1ccccc1)OC)N(C)C(=O)[C@@H](NC(=O)[C@H](C(C)C)N(C)C(=O)OCc1ccc(NC(=O)[C@H](CCCNC(N)=O)NC(=O)[C@@H](NC(=O)CCCCCCCCNc2ncc(-c3cc(C)cc(F)c3)c(N3CCC(N)CC3)c2-c2nc3ccc(Cl)cc3[nH]2)C(C)C)c(O[C@@H]2O[C@H](C(=O)NCC(=O)O)[C@@H](O)[C@H](O)[C@H]2O)c1)C(C)C [Compound 193]	3.8 nM
CC[C@H](C)[C@@H]([C@@H](CC(=O)N1CCC[C@H]1[C@H](OC)[C@@H](C)C(=O)N[C@H](C)[C@@H](O)c1ccccc1)OC)N(C)C(=O)[C@@H](NC(=O)[C@H](C(C)C)N(C)C(=O)OCc1ccc(NC(=O)[C@H](C)NC(=O)[C@@H](NC(=O)CCOCCC(=O)NCCNc2ncc(-c3cc(C)cc(F)c3)c(N3CCC(N)CC3)c2-c2nc3c(F)c(F)ccc3[nH]2)C(C)C)c(O[C@@H]2O[C@H](C(=O)O)[C@@H](O)[C@H](O)[C@H]2O)c1)C(C)C [Compound 109]	35 nM
CC[C@H](C)[C@@H]([C@@H](CC(=O)N1CCC[C@H]1[C@H](OC)[C@@H](C)C(=O)N[C@H](C)[C@@H](O)c1ccccc1)OC)N(C)C(=O)[C@@H](NC(=O)[C@H](C(C)C)N(C)C(=O)OCc1ccc(NC(=O)[C@H](CCCNC(N)=O)NC(=O)[C@@H](NC(=O)C[C@@H](N)C(=O)NCCOCCC(=O)NCCNc2ncc(-c3cc(C)cc(F)c3)c(N3CCC(N)CC3)c2-c2nc3ccc(Cl)cc3[nH]2)C(C)C)c(O[C@@H](C)C(=O)O)c1)C(C)C [Compound 200]	3.9 nM

*Q* Output measured EC50 for this item: CC[C@H](C)[C@@H]([C@@H](CC(=O)N1CCC[C@H]1[C@H](OC)[C@@H](C)C(=O)N[C@H](C)[C@@H](O)c1ccccc1)OC)N(C)C(=O)[C@@H](NC(=O)[C@H](C(C)C)N(C)C(=O)OCc1ccc(NC(=O)[C@H](CCCNC(N)=O)NC(=O)[C@@H](NC(=O)CCOCCC(=O)NCCNc2ncc(-c3cc(C)cc(F)c3)c(N3CCC(N)CC3)c2-c2nc3ccc(Cl)cc3[nH]2)C(C)C)cc1C(=O)NOCCN)C(C)C [Compound 88]
*A* 3.1 nM

*Q* Output measured EC50 for this item: CC[C@H](C)[C@@H]([C@@H](CC(=O)N1CCC[C@H]1[C@H](OC)[C@@H](C)C(=O)N[C@H](C)[C@@H](O)c1ccccc1)OC)N(C)C(=O)[C@@H](NC(=O)[C@H](C(C)C)N(C)C(=O)OCc1ccc(NC(=O)[C@H](CCCNC(N)=O)NC(=O)[C@@H](NC(=O)[C@@H](CS(=O)(=O)O)NC(=O)CCOCCC(=O)NCCNc2ncc(-c3cc(C)cc(F)c3)c(N3CCC(N)CC3)c2-c2nc3ccc(Cl)cc3[nH]2)C(C)C)cc1C(=O)NCCN)C(C)C [Compound 28]
*A* 11 nM

*Q* Output measured EC50 for this item: CC[C@H](C)[C@@H]([C@@H](CC(=O)N1CCC[C@H]1[C@H](OC)[C@@H](C)C(=O)N[C@H](C)[C@@H](O)c1ccccc1)OC)N(C)C(=O)[C@@H](NC(=O)[C@H](C(C)C)N(C)C(=O)OCc1ccc(NC(=O)[C@H](CCCNC(N)=O)NC(=O)[C@@H](NC(=O)c2cc(NCCOCCC(=O)NCCNc3ncc(-c4cc(C)cc(F)c4)c(N4CCC(N)CC4)c3-c3nc4ccc(Cl)cc4[nH]3)cc(C(=O)NCC(=O)S(N)(=O)=O)c2)C(C)C)cc1)C(C)C [Compound 188]
*A* 2.7 nM

*Q* Output measured EC50 for this item: CC[C@H](C)[C@@H]([C@@H](CC(=O)N1CCC[C@H]1[C@H](OC)[C@@H](C)C(=O)N[C@H](C)[C@@H](O)c1ccccc1)OC)N(C)C(=O)[C@@H](NC(=O)[C@H](C(C)C)N(C)C(=O)OCc1ccc(NC(=O)[C@H](C)NC(=O)[C@@H](NC(=O)CCOCCC(=O)N(C)CC(=O)NCCNc2ncc(-c3cc(C)cc(F)c3)c(N3CCC(N)CC3)c2-c2nc3ccc(Cl)cc3[nH]2)C(C)C)c(O[C@@H]2O[C@H](C(=O)NCC(=O)O)[C@@H](O)[C@H](O)[C@H]2O)c1)C(C)C [Compound 42]
*A* 3.8 nM

*Q* Output measured EC50 for this item: CC[C@H](C)[C@@H]([C@@H](CC(=O)N1CCC[C@H]1[C@H](OC)[C@@H](C)C(=O)N[C@H](C)[C@@H](O)c1ccccc1)OC)N(C)C(=O)[C@@H](NC(=O)[C@H](C(C)C)N(C)C(=O)OCc1ccc(NC(=O)[C@H](C)NC(=O)[C@@H](NC(=O)CCOCCC(=O)N(C)CC(=O)NCCNc2ncc(-c3cc(C)cc(F)c3)c(N3CCC(N)CC3)c2-c2nc3ccc(Cl)cc3[nH]2)C(C)C)c(O[C@@H]2O[C@H](C(=O)O)[C@@H](O)[C@H](O)[C@H]2O)c1)C(C)C [Compound 134]
*A* 2.1 nM

*Q* Output measured EC50 for this item: CC[C@H](C)[C@@H]([C@@H](CC(=O)N1CCC[C@H]1[C@H](OC)[C@@H](C)C(=O)N[C@H](C)[C@@H](O)c1ccccc1)OC)N(C)C(=O)[C@@H](NC(=O)[C@H](C(C)C)N(C)C(=O)OCc1ccc(NC(=O)[C@H](CCCNC(N)=O)NC(=O)[C@@H](NS(=O)(=O)C[C@H](C)NC(=O)CCOCCC(=O)NCCNc2ncc(-c3cc(C)cc(F)c3)c(N3CCC(N)CC3)c2-c2nc3ccc(Cl)cc3[nH]2)C(C)C)c(O[C@@H]2O[C@H](C(=O)NCC(=O)O)[C@@H](O)[C@H](O)[C@H]2O)c1)C(C)C [Compound 214]
*A* 4 nM
